B1: FAM164A (parent)
chain: YDPDYIQCPYCQRRFNENAADRHI

Variants of: B1
Experiment Notes: protein stability index of a GFP-peptide fusion (GPS, HEK-293T) (PSI 1-6); higher = more stable;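 further: lentivirally expressed fusions sorted by FACS into six bins by GFP to DsRed ratio, PSI derived from sequencing read proportions per bin multiplied by bin number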
Experimental Parameters: c terminus: a fixed tail appended
Would you kindly list protein stability index for each of these variants?
// keep it numeric: no unit symbol after the value

Req: Data request, read-out protein stability index, for `R13M`
Resp: 4.03

Req: Data request, read-out protein stability index, for `R22T`
Resp: 4.02

Req: Data request, read-out protein stability index, for `Y10N`
Resp: 3.91

Req: Data request, read-out protein stability index, for `D21R`
Resp: 4.07
